This collection of values is drawn from patent US20180273635A1.

# Target or test system: HER2 expressed on the surface of cells (human, UniProt P04626 23-1255)
# Method: cell-based or functional assay
Listing of recorded growth inhibition IC50 (potency), NCI-N87 cells, 5 days by entry.
All answers are understood in nM, so give the number only.

See these solved cases before continuing.
Binder	Test result
Variant 14019 (antibody, name in Kabat numbering, V domains shown, also called v14019) VH: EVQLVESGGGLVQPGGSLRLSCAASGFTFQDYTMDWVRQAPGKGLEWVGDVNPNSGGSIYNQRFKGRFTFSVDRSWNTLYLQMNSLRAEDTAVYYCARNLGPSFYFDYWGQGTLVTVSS VL: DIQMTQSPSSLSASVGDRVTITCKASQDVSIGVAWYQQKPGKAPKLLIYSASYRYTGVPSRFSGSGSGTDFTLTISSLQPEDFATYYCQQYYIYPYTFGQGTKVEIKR	4.1
Variant 14023 (antibody, name in Kabat numbering, V domains shown, also called v14023) VH: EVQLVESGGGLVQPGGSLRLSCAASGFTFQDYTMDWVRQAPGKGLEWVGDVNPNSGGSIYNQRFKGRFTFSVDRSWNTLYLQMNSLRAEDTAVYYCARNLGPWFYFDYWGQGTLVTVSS VL: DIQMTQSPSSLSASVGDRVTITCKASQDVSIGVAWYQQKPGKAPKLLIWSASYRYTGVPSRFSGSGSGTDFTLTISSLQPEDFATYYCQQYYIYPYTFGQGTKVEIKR	2.5
Variant 14021 (antibody, name in Kabat numbering, V domains shown, also called v14021) VH: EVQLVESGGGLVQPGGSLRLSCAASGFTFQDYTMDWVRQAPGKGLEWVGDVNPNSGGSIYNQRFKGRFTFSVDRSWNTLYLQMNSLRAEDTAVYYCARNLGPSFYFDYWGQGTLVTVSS VL: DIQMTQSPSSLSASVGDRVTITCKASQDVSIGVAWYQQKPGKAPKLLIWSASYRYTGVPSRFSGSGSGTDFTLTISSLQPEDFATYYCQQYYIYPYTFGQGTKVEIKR	2

Shifting focus to the binder that follows.
Qu. Field request: growth inhibition IC50 (potency), NCI-N87 cells, 5 days | item: Variant 14020 (antibody, name in Kabat numbering, V domains shown, also called v14020) VH: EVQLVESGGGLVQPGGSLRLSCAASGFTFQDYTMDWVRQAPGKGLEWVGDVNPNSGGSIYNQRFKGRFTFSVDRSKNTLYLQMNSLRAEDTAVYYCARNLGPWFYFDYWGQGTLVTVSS VL: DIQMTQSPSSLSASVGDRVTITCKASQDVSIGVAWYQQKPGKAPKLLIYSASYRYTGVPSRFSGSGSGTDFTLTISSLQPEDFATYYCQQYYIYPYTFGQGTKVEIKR
Ans. 3.5
